target: Mu-type opioid receptor (Rattus norvegicus); test: Inhibition of [3H]DAGO binding to rat Opioid receptor mu 1
Sequence (P33535 whole entry): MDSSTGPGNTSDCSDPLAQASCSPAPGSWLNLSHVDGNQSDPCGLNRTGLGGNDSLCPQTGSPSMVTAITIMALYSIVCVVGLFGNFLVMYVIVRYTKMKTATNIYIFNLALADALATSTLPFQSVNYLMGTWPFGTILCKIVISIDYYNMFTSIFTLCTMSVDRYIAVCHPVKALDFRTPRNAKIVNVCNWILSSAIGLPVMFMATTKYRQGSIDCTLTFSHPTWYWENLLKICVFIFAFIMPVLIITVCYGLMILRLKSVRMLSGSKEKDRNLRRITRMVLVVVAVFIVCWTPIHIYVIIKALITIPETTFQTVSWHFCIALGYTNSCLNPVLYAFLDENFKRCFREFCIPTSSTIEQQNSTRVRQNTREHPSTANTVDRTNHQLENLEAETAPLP
pKi: −log10 of the molar value.
Classify as follows. Reported pKi greater than or equal to 6: met. Reported pKi below: not met.

>>> category_label("CSCC[C@H](NC(=O)[C@H](CC(C)C)NC(=O)[C@H](Cc1c[nH]cn1)NC(=O)[C@H](Cc1ccccc1)NC(=O)[C@@H](CCSC)NC(=O)[C@@H](N)Cc1ccc(O)cc1)C(=O)N[C@H](CC(=O)O)C(N)=O")
"met"
>>> category_label("CSCC[C@H](NC(=O)[C@H](CC(C)C)NC(=O)[C@H](Cc1ccccc1)NC(=O)[C@@H](CCSC)NC(=O)[C@@H](N)Cc1ccc(O)cc1)C(=O)N[C@@H](CC(=O)O)C(N)=O")
"met"
>>> category_label("CSCC[C@H](NC(=O)[C@H](CC(C)C)NC(=O)[C@H](Cc1ccccc1)NC(=O)[C@@H](CCSC)NC(=O)[C@H](N)Cc1ccc(O)cc1)C(=O)N[C@@H](CC(=O)O)C(N)=O")
"not met"
>>> category_label("CSCC[C@H](NC(=O)[C@@H](CC(C)C)NC(=O)[C@H](Cc1ccccc1)NC(=O)[C@@H](CCSC)NC(=O)[C@@H](N)Cc1ccc(O)cc1)C(=O)N[C@@H](CC(=O)O)C(N)=O")
"met"
>>> category_label("CSCC[C@H](NC(=O)[C@H](CC(C)C)NC(=O)[C@H](Cc1ccccc1)NC(=O)[C@@H](C)NC(=O)[C@@H](N)Cc1ccc(O)cc1)C(=O)N[C@@H](CC(=O)O)C(N)=O")
"met"

###

molecular target: Delta-type opioid receptor (Rattus norvegicus); experiment: Compound was tested for its binding affinity against opioid receptor delta using [3H]DPDPE as radioligand.
Sequence (P33533 whole entry): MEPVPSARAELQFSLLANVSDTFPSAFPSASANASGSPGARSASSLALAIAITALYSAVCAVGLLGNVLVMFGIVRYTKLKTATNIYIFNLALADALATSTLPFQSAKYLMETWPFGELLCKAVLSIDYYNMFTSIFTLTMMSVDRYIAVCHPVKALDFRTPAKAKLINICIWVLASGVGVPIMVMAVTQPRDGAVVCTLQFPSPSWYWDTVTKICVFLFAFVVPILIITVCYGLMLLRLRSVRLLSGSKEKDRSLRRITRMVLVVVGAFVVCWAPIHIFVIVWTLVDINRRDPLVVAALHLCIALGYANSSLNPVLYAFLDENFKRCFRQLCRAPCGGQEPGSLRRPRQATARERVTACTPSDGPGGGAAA
pKi: −log10 of the molar value.
Endpoint: pKi

>>> measured_result("CSCC[C@H](NC(=O)[C@H](CC(C)C)NC(=O)[C@@H](Cc1cnc[nH]1)NC(=O)[C@H](Cc1ccccc1)NC(=O)[C@@H](CCSC)NC(=O)[C@@H](N)Cc1ccc(O)cc1)C(=O)N[C@@H](CC(=O)O)C(N)=O")
8.56
>>> measured_result("CSCC[C@H](NC(=O)[C@H](CC(C)C)NC(=O)[C@H](Cc1c[nH]cn1)NC(=O)[C@H](Cc1ccccc1)NC(=O)[C@@H](C)NC(=O)[C@@H](N)Cc1ccc(O)cc1)C(=O)N[C@@H](CC(=O)O)C(N)=O")
9.44
>>> measured_result("CSCC[C@H](NC(=O)[C@H](CC(C)C)NC(=O)[C@H](Cc1cnc[nH]1)NC(=O)[C@H](Cc1ccccc1)NC(=O)[C@@H](CCSC)NC(=O)[C@@H](N)Cc1ccc(O)cc1)C(=O)N[C@@H](CC(=O)O)C(N)=O")
9.35
>>> measured_result("CSCC[C@H](NC(=O)[C@H](CC(C)C)NC(=O)[C@H](Cc1cnc[nH]1)NC(=O)[C@H](Cc1ccccc1)NC(=O)[C@@H](CCSC)NC(=O)[C@H](N)Cc1ccc(O)cc1)C(=O)N[C@@H](CC(=O)O)C(N)=O")
6.26
>>> measured_result("CSCC[C@H](NC(=O)[C@H](CC(C)C)NC(=O)[C@H](Cc1c[nH]cn1)NC(=O)[C@@H](Cc1ccccc1)NC(=O)[C@@H](CCSC)NC(=O)[C@@H](N)Cc1ccc(O)cc1)C(=O)N[C@@H](CC(=O)O)C(N)=O")
7.40

Each recorded value in this set is attributed to ChEMBL document CHEMBL1125419.
